Target: Delta-type opioid receptor (Homo sapiens, UniProt P41143)
Sequence (P41143 whole entry): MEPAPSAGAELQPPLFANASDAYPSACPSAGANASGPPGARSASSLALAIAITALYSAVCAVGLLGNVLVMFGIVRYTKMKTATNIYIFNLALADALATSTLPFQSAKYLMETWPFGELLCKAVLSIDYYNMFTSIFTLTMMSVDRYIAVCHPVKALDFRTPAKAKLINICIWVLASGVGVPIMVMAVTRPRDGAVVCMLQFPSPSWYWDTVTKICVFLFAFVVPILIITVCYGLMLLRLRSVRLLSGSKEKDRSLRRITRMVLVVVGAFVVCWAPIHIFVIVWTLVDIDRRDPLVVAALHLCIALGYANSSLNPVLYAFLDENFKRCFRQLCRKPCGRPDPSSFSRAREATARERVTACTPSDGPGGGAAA
Assay: Displacement of [3H]DADLE from human recombinant delta opioid receptor after 60 mins by scintillation counting analysis
pIC50: −log10 of the molar value.

Structure as smiles	pIC50
CC(C)(C)NS(=O)(=O)c1ccc(-c2sc(C(=O)N[C@H]3C[C@H](C(=O)O)C3)nc2CC2CCCCC2)c2ccccc12	8.22

###

Assay: Half life in Sprague-Dawley rat at 1 mg/kg, iv
Format: ADME, organism-based
Details: in vivo

Structure as smiles	half-life (h)
CC(C)(C)NS(=O)(=O)c1ccc(-c2sc(C(=O)N[C@H]3C[C@H](C(=O)O)C3)nc2CC2CCCCC2)c2ccccc12	0.7
CC(C)(C)NS(=O)(=O)c1ccc(-c2sc(C(=O)N[C@H]3C[C@H](C(=O)O)C3)nc2CC2CCCCC2)c(Cl)c1	0.5
C[C@H](NS(=O)(=O)c1ccc(-c2sc(C(=O)NC3CCS(=O)(=O)CC3)nc2CC2CC2)c2ccccc12)C(F)(F)F	3.8
C[C@H](NS(=O)(=O)c1ccc(-c2sc(C(=O)NCC(C)(C)O)nc2CC2CC2)c2ccccc12)C(F)(F)F	10.2
C[C@H](NS(=O)(=O)c1ccc(-c2sc(C(=O)NCC(C)(C)O)nc2CC2CCC2)c(C(F)F)c1)C(F)(F)F	1.9

###

Target: Nuclear receptor ROR-gamma (Homo sapiens, UniProt P51449)
Sequence (P51449 whole entry, the tested form may be a part): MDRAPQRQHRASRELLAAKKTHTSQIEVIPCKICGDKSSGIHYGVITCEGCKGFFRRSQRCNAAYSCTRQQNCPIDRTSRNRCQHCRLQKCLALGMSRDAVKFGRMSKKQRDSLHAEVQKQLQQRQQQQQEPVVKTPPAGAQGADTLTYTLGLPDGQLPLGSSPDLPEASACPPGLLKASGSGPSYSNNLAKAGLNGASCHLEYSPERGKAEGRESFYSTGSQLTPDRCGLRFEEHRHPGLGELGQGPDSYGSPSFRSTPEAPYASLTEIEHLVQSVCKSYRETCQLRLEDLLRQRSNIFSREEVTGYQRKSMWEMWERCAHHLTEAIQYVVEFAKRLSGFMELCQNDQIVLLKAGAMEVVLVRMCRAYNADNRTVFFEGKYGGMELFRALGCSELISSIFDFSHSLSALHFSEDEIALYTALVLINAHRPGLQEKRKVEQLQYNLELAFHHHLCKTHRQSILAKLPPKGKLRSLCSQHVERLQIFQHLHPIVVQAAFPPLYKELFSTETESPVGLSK
Assay: Binding affinity to recombinant human RORgamma LBD (237 to 497 residues) expressed in Escherichia coli BL21 (DE3) GOLD by 1,8-ANS dye-based thermofluor assay

Structure as smiles	Kd, nM
CC(C)(C)NS(=O)(=O)c1ccc(-c2sc(C(=O)N[C@H]3C[C@H](C(=O)O)C3)nc2CC2CCCCC2)c2ccccc12	0.12

###

A collection of compounds and their measured Emax at 16 h, 5 µM
Biological target: PXR (NR1I2) (Homo sapiens, UniProt O75469)
Sequence (O75469 whole entry, the tested form may be a part): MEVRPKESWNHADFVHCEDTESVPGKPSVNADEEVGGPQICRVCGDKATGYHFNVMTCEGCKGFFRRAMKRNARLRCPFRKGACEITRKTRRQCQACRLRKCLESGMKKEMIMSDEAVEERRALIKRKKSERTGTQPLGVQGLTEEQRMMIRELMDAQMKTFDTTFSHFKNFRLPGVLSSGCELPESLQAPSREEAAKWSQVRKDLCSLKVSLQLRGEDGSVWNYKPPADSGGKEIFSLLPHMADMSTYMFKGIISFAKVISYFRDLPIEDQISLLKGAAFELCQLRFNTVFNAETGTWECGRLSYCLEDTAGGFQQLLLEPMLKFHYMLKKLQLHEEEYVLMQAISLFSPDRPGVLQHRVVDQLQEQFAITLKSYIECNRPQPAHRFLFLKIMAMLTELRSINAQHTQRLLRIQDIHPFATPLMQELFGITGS
Assay: […] at PXR LBD (unknown origin) expressed in HEK293 cells […] at 5 uM after 16 hrs by luciferase reporter gene assay relative to rifampicin
Assay type: ADME, cell-based
Settings: HEK293 cells expressing PXR LBD, read-out: Efficacy
Reported property: Emax at 16 h, 5 µM (%)

Structure as smiles	Reported property	Result
C[C@H](NS(=O)(=O)c1ccc(-c2sc(C(=O)N[C@H]3C[C@H](C(=O)O)C3)nc2CC2CCC2)c2ccccc12)C(F)(F)F	Emax at 16 h, 5 µM	118
CC(C)(C)NS(=O)(=O)c1ccc(-c2sc(C(=O)NCC3CS(=O)(=O)C3)nc2CC2CCCCC2)c2ccccc12	Emax at 16 h, 5 µM	147
CCC(C)(C)NS(=O)(=O)c1ccc(-c2sc(C(=O)N[C@H]3C[C@H](C(=O)O)C3)nc2CC2CCCCC2)c2ccccc12	Emax at 16 h, 5 µM	158
CC(C)(C)NS(=O)(=O)c1ccc(-c2sc(C(=O)NC3CCS(=O)(=O)CC3)nc2C(C)(C)C)c2ccccc12	Emax at 16 h, 5 µM	112
CC(C)(C)c1cc(-c2sc(C(=O)N[C@H]3C[C@H](C(=O)O)C3)nc2CC2CCCCC2)cc(C(O)(C(F)(F)F)C(F)(F)F)c1	Emax at 16 h, 5 µM	89
C[C@H](NS(=O)(=O)c1ccc(-c2sc(C(=O)NCC(C)(C)O)nc2C2CCCCC2)c(Cl)c1Cl)C(F)(F)F	Emax at 16 h, 5 µM	68
C[C@H](NS(=O)(=O)c1ccc(-c2sc(C(=O)NCC(C)(C)O)nc2COC(C)(C)C)c(Cl)c1Cl)C(F)(F)F	Emax at 16 h, 5 µM	117
CC(C)(CCF)NS(=O)(=O)c1ccc(-c2sc(C(=O)N[C@H]3C[C@H](C(=O)O)C3)nc2CC2CCCCC2)c2ccccc12	Emax at 16 h, 5 µM	117
C[C@H](NC(=O)c1cc(-c2sc(C(=O)N[C@H]3C[C@H](C(=O)O)C3)nc2CC2CCCCC2)cc(C2(C#N)CC2)c1)C(F)(F)F	Emax at 16 h, 5 µM	7.5
CC[C@H](NC(=O)c1cc(-c2sc(C(=O)N[C@H]3C[C@H](C(=O)O)C3)nc2CC2CCCCC2)cc(C2(C)CC2)c1)C(F)(F)F	Emax at 16 h, 5 µM	71
C[C@H](NS(=O)(=O)c1ccc(-c2sc(C(=O)NCC(C)(C)O)nc2-c2cccc(F)c2)c(Cl)c1Cl)C(F)(F)F	Emax at 16 h, 5 µM	122
C[C@H](NS(=O)(=O)c1ccc(-c2sc(C(=O)NCC(C)(C)O)nc2CC2CC(F)(F)C2)c2ccccc12)C(F)(F)F	Emax at 16 h, 5 µM	80
CC(C)(C)NS(=O)(=O)c1ccc(-c2sc(C(=O)NCC(C)(C)C(N)=O)nc2CC2CCCCC2)c2ccccc12	Emax at 16 h, 5 µM	142
CC(C)(CCO)NS(=O)(=O)c1ccc(-c2sc(C(=O)N[C@H]3C[C@H](C(=O)O)C3)nc2CC2CCCCC2)c2ccccc12	Emax at 16 h, 5 µM	53
C[C@H](NS(=O)(=O)c1ccc(-c2sc(C(=O)NCC(C)(C)O)nc2CC2CC2)c2ccccc12)C(F)(F)F	Emax at 16 h, 5 µM	188
C[C@H](NS(=O)(=O)c1ccc(-c2sc(C(=O)N3CC4(C3)CS(=O)(=O)C4)nc2CC2CCC2)c(Cl)c1Cl)C(F)(F)F	Emax at 16 h, 5 µM	106
